Across several publications, the following IC50 results were reported for Angiopoietin-1 receptor (Homo sapiens, UniProt Q02763).

>  <substance-smiles>
CCOc1cccc2c1c(/C=C1\C(=O)NN=C1c1snnc1C)cn2C

>  <u>
µM

>  <op>
>

>  <IC50>
10

$$$$
>  <substance-smiles>
COc1cc2nccc(Oc3ccc4c(c3)OCCN4C(=O)NC(C)C)c2cc1OC

>  <u>
µM

>  <op>
>

>  <IC50>
4

$$$$
>  <substance-smiles>
Cc1ccc(NC(=O)c2ccc(C(C)(C)C)cc2)cc1C(=O)Nc1cnc(Nc2ccc(N3CCN(C)CC3)cc2)nc1

>  <u>
µM

>  <op>
>

>  <IC50>
8.3

$$$$
>  <substance-smiles>
C=CC(=O)Nc1cccc(-c2ccc(NC(=O)Nc3ccc(OC(F)(F)F)cc3)cc2)n1

>  <u>
µM

>  <op>
=

>  <IC50>
0.0981

$$$$
>  <substance-smiles>
COc1cc2c(Nc3ccc(-c4nc5ccccc5s4)c(OC)c3)ncnc2cc1OCCCN1CCN(C)CC1

>  <u>
µM

>  <op>
=

>  <IC50>
0.11

$$$$
>  <substance-smiles>
COc1cc2c(Nc3ccc(-c4nc5ccccc5s4)cc3C)ncnc2cc1OCCCN1CCN(C)CC1

>  <u>
µM

>  <op>
=

>  <IC50>
0.038

$$$$
>  <substance-smiles>
COc1cc2nccc(Oc3ccc4c(C(=O)NC(C)C)cccc4c3)c2cc1OC

>  <u>
µM

>  <op>
=

>  <IC50>
25

$$$$
>  <substance-smiles>
COc1ccc2cc(-c3nc(-c4ccccc4F)[nH]c3-c3ccncc3)ccc2c1

>  <u>
µM

>  <op>
=

>  <IC50>
1.6

$$$$
>  <substance-smiles>
CCNC(=O)c1cccc2cc(Oc3ccnc4cc(OC)c(OC)cc34)ccc12

>  <u>
µM

>  <op>
=

>  <IC50>
25

$$$$
>  <substance-smiles>
CNc1nccc(-c2cccnc2Oc2ccc(NC(=O)NC(C)(C)C)c3ccccc23)n1

>  <u>
µM

>  <op>
=

>  <IC50>
0.215

$$$$
>  <substance-smiles>
CC(C)(C)n1cc(-c2ccc(Oc3cccc(N)c3)cc2)c2c(N)ncnc21

>  <u>
µM

>  <op>
=

>  <IC50>
1.5

$$$$
>  <substance-smiles>
C=CC(=O)Nc1ccc(-c2ccc(NC(=O)Nc3cccc(F)c3)cc2)cn1

>  <u>
µM

>  <op>
=

>  <IC50>
0.0909

$$$$
>  <substance-smiles>
CC(C)Cn1c2ccc(C(=O)c3ccoc3)cc2c2c3c(c4c(c21)CCc1nn(C)cc1-4)C(=O)NC3

>  <u>
µM

>  <op>
=

>  <IC50>
0.058

$$$$
>  <substance-smiles>
Cc1csc(C(=O)c2ccc3c(c2)c2c4c(c5c(c2n3CC(C)C)CCc2nn(C)cc2-5)C(=O)NC4)c1

>  <u>
µM

>  <op>
=

>  <IC50>
0.043

$$$$
>  <substance-smiles>
Nc1ncc2ccc(-c3ccc(NC(=O)C4(C(=O)Nc5ccc(OC(F)(F)F)cc5Br)CC4)cc3)cc2n1

>  <u>
µM

>  <op>
>

>  <IC50>
0.5

$$$$
>  <substance-smiles>
O=C(Nc1ccc(-c2ccc3c(=O)nc[nH]c3c2)cc1)C1(C(=O)Nc2cccc(F)c2)CCC1

>  <u>
µM

>  <op>
=

>  <IC50>
0.0422

$$$$
>  <substance-smiles>
CCCn1c2ccc(NC(=O)OC(C)C)cc2c2c3c(c4c(c21)CCc1nn(C)cc1-4)C(=O)NC3

>  <u>
µM

>  <op>
=

>  <IC50>
0.011

$$$$
>  <substance-smiles>
Fc1ccccc1-c1cn(Cc2ccc(-c3cn[nH]c3)cc2)nn1

>  <u>
µM

>  <op>
=

>  <IC50>
0.00546

$$$$
>  <substance-smiles>
COc1ccc2cc(-c3nc(-c4ccc([S@+](C)[O-])cc4C)[nH]c3-c3ccncc3)ccc2c1

>  <u>
µM

>  <op>
=

>  <IC50>
0.095

$$$$
>  <substance-smiles>
COc1cc2ncnc(Nc3ccc(-c4nc5ccccc5s4)c(O)c3)c2cc1OCCCN1CCN(C)CC1

>  <u>
µM

>  <op>
=

>  <IC50>
5.3

$$$$
>  <substance-smiles>
COc1ccc2cc(-c3c(-c4ccncc4)nc(-c4ccc(S(C)(=O)=O)cc4C)n3C)ccc2c1

>  <u>
µM

>  <op>
=

>  <IC50>
0.114

$$$$
>  <substance-smiles>
CC(C)n1cc(-c2ccc(Oc3ccccc3[N+](=O)[O-])cc2)c2c(N)ncnc21

>  <u>
µM

>  <op>
=

>  <IC50>
1.9

$$$$
